Target: T1, BCMA on the surface of BCMA-positive cell lines H929 (NCI-H929) and RPMI8226 (human, UniProt Q02223 1-184)
T1 construct: whole, on cells; Endogenous BCMA of the cell lines; also called 细胞膜表面的BCMA抗原
T1 sequence (looked up): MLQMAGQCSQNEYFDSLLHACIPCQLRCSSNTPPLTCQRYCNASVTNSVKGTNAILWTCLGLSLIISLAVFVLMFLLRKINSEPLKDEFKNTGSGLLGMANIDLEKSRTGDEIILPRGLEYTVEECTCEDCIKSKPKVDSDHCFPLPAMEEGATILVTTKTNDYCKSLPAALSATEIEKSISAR
Assay: flow cytometry on RPMI8226 cells; EC50 relative to J6
Endpoint name: 相对于J6提高倍数 (fold improvement of EC50 over J6) (fold)
Give the value, in units of fold, as a plain number.

- Binder: "B10.3 (affinity-matured mutant of B10) (scFv, also called 突变体B10.3) scFv: QVQLQQSGAEVKKPGSSVKVSCKASGGTFSKSAIQWVRQAPGQGLEWMGGVIPIFGTANYAQKFQGRVTITADESTSTAYMELSSLRSEDTAVYYCARGWYLDLWGRGTLVTVSSGGSSRSSSSGGGGSGGGGLPVLTQPPSASGTPGQRVTISCSGSSNNIGGYSVNWYQQFPGTAPKLLIYRNNQRPSGVPDRFSGSKSGASASLAISGLQSEDEADYYCAAWDDSVIGWLFGTGTQLTVL"
  Measured result: 97.1
- Binder: "B10.5 (affinity-matured mutant of B10) (scFv, also called 突变体B10.5) scFv: QVQLQQSGAEVKKPGSSVKVSCKASGGTFSKSAIHWVRQAPGQGLEWMGGVIPIFGTANYAQKFQGRVTITADESTSTAYMELSSLRSEDTAVYYCARGWYLDLWGRGTLVTVSSGGSSRSSSSGGGGSGGGGLPVLTQPPSASGTPGQRVTISCSGSSSNIGGYSVNWYQQFPGTAPKLLIYRNNQRPSGVPDRFSGSKSGASASLAISGLQSEDVADYYCAAWDDSLIGYVFGTGTQLTVL"
  Measured result: 67.5
- Binder: "B10.9 (affinity-matured mutant of B10) (scFv, also called 突变体B10.9) scFv: QVQLQQSGAEVKKPGSSVKVSCKASGGTFSKSAIQWVRQAPGQGLEWMGGVIPIFGTANYAQKFQGRVTITADESTSTAYMELSSLRSEDTAVYYCARGWYLDLWGRGTLVTVSSGGSSRSSSSGGGGSGGGGLPVLTQPPSASGTPGQRVTISCSGSSNNIGGYSVNWYQQFPGTAPKLLIYRNNQRPSGVPDRFSGSKSGASASLAISGLQSEDEADYYCAAWDDSEIGWLFGTGTQLTVL"
  Measured result: 60.7
- Binder: "B10.4 (affinity-matured mutant of B10) (scFv, also called 突变体B10.4) scFv: QVQLQQSGAEVKKPGSSVKVSCKASGGTFSKSAIMWVRQAPGQGLEWMGGVIPIFGTANYAQKFQGRVTITADESTSTAYMELSSLRSEDTAVYYCARGWYLDLWGRGTLVTVSSGGSSRSSSSGGGGSGGGGLPVLTQPPSASGTPGQRVTISCSGSSNNIGGYSVNWYQQFPGTAPKLLIYRNNQRPSGVPDRFSGSKSGASASLAISGLQSEDEADYYCAAWDDSVIGWLFGTGTQLTVL"
  Measured result: 79.9

Q: 相对于J6提高倍数 (fold improvement of EC50 over J6) for B10 parental antibody as expressed and purified in Example 3 (antibody, V domains shown, also called 亲本B10; B10亲本抗体) VH: QVQLQQSGAEVKKPGSSVKVSCKASGGTFSSYAISWVRQAPGQGLEWMGGIIPIFGTANYAQKFQGRVTITADESTSTAYMELSSLRSEDTAVYYCARGWYFDLWGRGTLVTVSS VL: LPVLTQPPSASGTPGQRVTISCSGSSSNIGGYSVNWYQQFPGTAPKLLIYRNNQRPSGVPDRFSGSKSGASASLAISGLQSEDEADYYCAAWDDSLIGYVFGTGTQLTVL ?
A: 1.74
